Reported pIC50 values are given for each entry in this list.
study.system: recombinant human liver glycogen phosphorylase (HLGPa) (Homo sapiens)
Sequence (P06737 whole entry): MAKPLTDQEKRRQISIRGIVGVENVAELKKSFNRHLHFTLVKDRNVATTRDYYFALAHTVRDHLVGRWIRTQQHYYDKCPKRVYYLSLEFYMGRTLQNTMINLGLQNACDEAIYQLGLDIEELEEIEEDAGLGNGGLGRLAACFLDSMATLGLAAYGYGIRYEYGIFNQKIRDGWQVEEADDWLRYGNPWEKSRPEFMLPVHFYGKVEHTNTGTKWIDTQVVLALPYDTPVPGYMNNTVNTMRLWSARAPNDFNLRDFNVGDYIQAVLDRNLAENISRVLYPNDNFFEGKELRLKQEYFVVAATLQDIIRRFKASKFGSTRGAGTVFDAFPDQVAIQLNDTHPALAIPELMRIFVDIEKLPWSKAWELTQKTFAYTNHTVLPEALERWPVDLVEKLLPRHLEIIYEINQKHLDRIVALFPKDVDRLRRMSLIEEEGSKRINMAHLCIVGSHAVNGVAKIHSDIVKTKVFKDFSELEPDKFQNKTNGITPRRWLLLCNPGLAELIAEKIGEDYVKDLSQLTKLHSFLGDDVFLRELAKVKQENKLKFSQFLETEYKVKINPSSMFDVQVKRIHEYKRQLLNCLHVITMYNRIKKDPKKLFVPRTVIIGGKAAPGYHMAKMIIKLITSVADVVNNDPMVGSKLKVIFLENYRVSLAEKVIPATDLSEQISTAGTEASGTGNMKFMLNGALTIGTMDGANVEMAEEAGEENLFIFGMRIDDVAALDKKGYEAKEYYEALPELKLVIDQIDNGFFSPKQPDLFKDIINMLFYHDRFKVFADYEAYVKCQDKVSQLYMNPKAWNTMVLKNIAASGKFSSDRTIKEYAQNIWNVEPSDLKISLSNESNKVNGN
experiment.summary: Measurement of liver glycogen phosphorylase activity (enzyme inhibitory activity against HLGPa)
measurement.context: Sf9 cell lysate expressing recombinant enzyme; reverse reaction (glycogen synthesis from G1-P), phosphate by malachite green, 60 min room temperature
From the text: Measurement Method of Liver Glycogen Phosphorylase Activity […]
# pIC50: negative log10 of molar concentration; output just the value

Solved entries (count: 5):
1. O=C(Nc1ccccc1C(=O)NNC(=O)c1cc2cc(Cl)ccc2[nH]1)OC(CO)CO | 6.60
2. O=C(NNC(=O)c1ccccc1OCCO)c1cc2cc(Cl)ccc2[nH]1 | 6.80
3. CS(=O)(=O)O.N=C(Cc1ccccc1)NNC(=O)c1cc2cc(Cl)ccc2[nH]1 | 7.08
4. O=C(NNC(=O)c1cc2cc(Cl)ccc2[nH]1)Nc1ccc(F)cc1 | 7.06
5. O=C(NNC(=O)c1cc2sccc2[nH]1)c1cc2cc(Cl)ccc2[nH]1 | 7.25

(Q) Request - read-out pIC50 | tested on recombinant human liver glycogen phosphorylase (HLGPa) (Homo sapiens) | compound "O=C(NNC(=O)c1cc2cc(Cl)ccc2[nH]1)c1cccc(F)c1"
(A) 7.31

(Q) Request - read-out pIC50 | tested on recombinant human liver glycogen phosphorylase (HLGPa) (Homo sapiens) | compound "Cc1ccc(C(=O)NNC(=O)c2cc3cc(Cl)ccc3[nH]2)cc1"
(A) 6.89

(Q) Request - read-out pIC50 | tested on recombinant human liver glycogen phosphorylase (HLGPa) (Homo sapiens) | compound "O=C(O)CNc1ccccc1C(=O)NNC(=O)c1cc2cc(Cl)ccc2[nH]1"
(A) 7.31

(Q) Request - read-out pIC50 | tested on recombinant human liver glycogen phosphorylase (HLGPa) (Homo sapiens) | compound O=C(NN1C(=O)NC(c2ccccc2F)C1=O)c1cc2cc(Cl)ccc2[nH]1 (centres unmarked)
(A) 6.96

(Q) Request - read-out pIC50 | tested on recombinant human liver glycogen phosphorylase (HLGPa) (Homo sapiens) | compound "O=C(NNC(=O)c1cc2cc(Cl)ccc2[nH]1)c1cn[nH]c1"
(A) 7.68

(Q) Request - read-out pIC50 | tested on recombinant human liver glycogen phosphorylase (HLGPa) (Homo sapiens) | compound "COC(=O)Nc1ccccc1C(=O)NNC(=O)c1cc2cc(F)ccc2[nH]1"
(A) 7.06

(Q) Request - read-out pIC50 | tested on recombinant human liver glycogen phosphorylase (HLGPa) (Homo sapiens) | compound "Cc1ccc(C(=N)NNC(=O)c2cc3cc(Cl)ccc3[nH]2)cc1"
(A) 7.23

(Q) Request - read-out pIC50 | tested on recombinant human liver glycogen phosphorylase (HLGPa) (Homo sapiens) | compound "N=C(NNC(=O)c1cc2cc(Cl)ccc2[nH]1)c1cnccn1"
(A) 6.74

(Q) Request - read-out pIC50 | tested on recombinant human liver glycogen phosphorylase (HLGPa) (Homo sapiens) | compound "O=C(NNC(=O)c1cc2cc(Cl)ccc2[nH]1)c1ccoc1"
(A) 7.70

(Q) Request - read-out pIC50 | tested on recombinant human liver glycogen phosphorylase (HLGPa) (Homo sapiens) | compound "Cc1cccc(N)c1C(=O)NNC(=O)c1cc2cc(Cl)ccc2[nH]1"
(A) 7.06

(Q) Request - read-out pIC50 | tested on recombinant human liver glycogen phosphorylase (HLGPa) (Homo sapiens) | compound "CC(=O)Nc1cccc(C(=O)NNC(=O)c2cc3cc(Cl)ccc3[nH]2)c1"
(A) 6.54

(Q) Request - read-out pIC50 | tested on recombinant human liver glycogen phosphorylase (HLGPa) (Homo sapiens) | compound "Cc1ccc2[nH]c(C(=O)NN3C(=O)CCN(c4ccccc4)C3=O)cc2c1"
(A) 6.36

(Q) Request - read-out pIC50 | tested on recombinant human liver glycogen phosphorylase (HLGPa) (Homo sapiens) | compound O=C(NN1C(=O)N[C@@H](c2ccccc2)C1=O)c1cc2cc(Cl)ccc2[nH]1 (stereo in doubt)
(A) 7.07

----------
study.system: recombinant human liver glycogen phosphorylase (HLGPa) (Homo sapiens)
experiment.summary: Measurement of liver glycogen phosphorylase activity (enzyme inhibitory activity against HLGPa)
measurement.context: Sf9 cell lysate expressing recombinant enzyme; reverse reaction (glycogen synthesis from G1-P), phosphate by malachite green, 60 min room temperature
Text: Measurement Method of Liver Glycogen Phosphorylase Activity […]
reported.endpoint: pIC50
# pIC50: negative log10 of molar concentration; output just the value

1. O=C(Nn1c(=O)[nH]c2c(Cl)cccc2c1=O)c1cc2cc(Cl)ccc2[nH]1 [Example 2-20] | 7.66
2. Cc1cccc(C(=N)NNC(=O)c2cc3cc(Cl)ccc3[nH]2)c1 [Example 1-134] | 7.40

(Q) Request - read-out pIC50 | tested on recombinant human liver glycogen phosphorylase (HLGPa) (Homo sapiens) | compound CC(=O)N[C@H](C(=O)NNC(=O)c1cc2cc(Cl)ccc2[nH]1)c1ccccc1 (stereo in doubt) [Example 5-19]
(A) 6.44

(Q) Request - read-out pIC50 | tested on recombinant human liver glycogen phosphorylase (HLGPa) (Homo sapiens) | compound O=C(Nn1c(=O)[nH]c2ccccc2c1=O)c1cc2ccc(Cl)cc2[nH]1 [Example 2-12]
(A) 6.36

(Q) Request - read-out pIC50 | tested on recombinant human liver glycogen phosphorylase (HLGPa) (Homo sapiens) | compound COC(=O)Cn1c(=O)n(NC(=O)c2cc3cc(Cl)ccc3[nH]2)c(=O)c2ccccc21 [Example 2-22]
(A) 7.51
